Target: [35S]-TBPS binding, rat brain cortical membranes
Assay: Steroid inhibition of [35S]-TBPS binding
Details: 3 nM [35S]-TBPS, in the presence of 5 mM GABA
ENDPOINT_NAME: IC50

Example entries and their recorded answers appear below.
INSERT INTO measurements (molecule, endpoint_name, reported_measurement) VALUES
  ('CC(C)[C@@]1(O)CC[C@H]2[C@H](CC[C@@H]3[C@@H]2CC[C@]2(C)[C@@H]([C@H](C)Cn4cc(C#N)cn4)CC[C@@H]32)C1 [Example 344]', 'IC50', '≥ 10000 nM'),
  ('CCC[C@@]1(O)CC[C@@]2(CC)[C@H](CC[C@H]3[C@@H]4CC[C@H]([C@H](C)Cn5cc(C#N)cn5)[C@@]4(C)CC[C@@H]32)C1 [Example 302]', 'IC50', '< 100 nM');

IC50 on [35S]-TBPS binding, rat brain cortical membranes for CCOC[C@@]1(O)CC[C@@]2(C)[C@H](CC[C@@H]3[C@@H]2CC[C@]2(C)[C@@H]([C@@H](C)N[C@H](C)c4ccccc4)CC[C@@H]32)C1 [Example 207] is 1000 to 10000 nM

IC50 on [35S]-TBPS binding, rat brain cortical membranes for CCOC[C@@]1(O)CC[C@H]2[C@H](CC[C@@H]3[C@@H]2CC[C@]2(C)[C@@H]([C@H](C)Cn4nccn4)CC[C@@H]32)C1 [Example 265] is 100 to 1000 nM

IC50 on [35S]-TBPS binding, rat brain cortical membranes for COc1ccc(C(=O)N[C@@H](C)[C@H]2CC[C@H]3[C@@H]4CC[C@@H]5C[C@](C)(O)CC[C@@H]5[C@H]4CC[C@]23C)cc1 [Example 107] is 1000 to 10000 nM

----------
Quick reference for IC50 among some compounds
Biological target: [35S]-TBPS binding, rat brain cortical membranes
Assay: Steroid inhibition of [35S]-TBPS binding
Conditions: 3 nM [35S]-TBPS, in the presence of 5 mM GABA

Example entries and their recorded answers appear below.
INSERT INTO measurements (structure_string, reported_measurement) VALUES
  ('C[C@@H](NC(=O)c1ccc(C#N)cc1F)[C@H]1CC[C@H]2[C@@H]3CC[C@@H]4C[C@](C)(O)CC[C@@H]4[C@H]3CC[C@]12C', '< 100 nM'),
  ('CCC[C@@]1(O)CC[C@H]2[C@H](CC[C@@H]3[C@@H]2CC[C@]2(C)[C@@H]([C@H](C)Cn4cc(C#N)cn4)CC[C@@H]32)C1', '< 100 nM'),
  ('C[C@H](NC(=O)c1ccccc1)[C@H]1CC[C@H]2[C@@H]3CC[C@@H]4C[C@](C)(O)CC[C@@H]4[C@H]3CC[C@]12C', '1000 to 10000 nM'),
  ('C[C@@]1(O)CC[C@H]2[C@H](CC[C@@H]3[C@@H]2CC[C@]2(C)[C@@H](CN4C(=O)CCC[C@@H]4c4ccccc4)CC[C@@H]32)C1', '< 100 nM');

With those in mind, consider the next compound.
IC50 on [35S]-TBPS binding, rat brain cortical membranes for COC[C@@]1(O)CC[C@H]2[C@H](CC[C@@H]3[C@@H]2CC[C@]2(C)[C@@H]([C@@H](C)Cn4cc(C#N)cn4)CC[C@@H]32)C1 is < 100 nM

----------
Target: [35S]-TBPS binding, rat brain cortical membranes
Experiment: Steroid inhibition of [35S]-TBPS binding
Conditions: 3 nM [35S]-TBPS, in the presence of 5 mM GABA
pIC50: −log10 of the molar value.
ENDPOINT_NAME: pIC50

Example entries and their recorded answers appear below.
INSERT INTO assay_data (compound, reported_measurement) VALUES
  ('C[C@@H](Cn1cc(C#N)cn1)[C@@]1(O)CC[C@H]2[C@@H]3CC[C@@H]4C[C@](C)(O)CC[C@@H]4[C@H]3CC[C@@]21C [Example 345]', '5.00 to 6.00'),
  ('CCCC[C@@]1(O)CC[C@H]2[C@H](CC[C@@H]3[C@@H]2CC[C@]2(C)[C@@H]([C@H](C)Cn4cc(C#N)cn4)CC[C@@H]32)C1 [Example 312]', '> 7.00'),
  ('COC[C@@]1(O)CC[C@H]2[C@H](CC[C@@H]3[C@@H]2CC[C@]2(C)[C@@H]([C@H](C)NC(=O)c4ccc(OC(F)(F)F)cn4)CC[C@@H]32)C1 [Example 129]', '6.00 to 7.00'),
  ('C[C@H]([C@H]1CC[C@H]2[C@@H]3CC[C@@H]4C[C@](C)(O)CC[C@@H]4[C@H]3CC[C@]12C)N(C)S(=O)(=O)c1ccccc1 [Example 22]', '> 7.00'),
  ('C[C@H](Nc1ccccc1)[C@H]1CC[C@H]2[C@@H]3CC[C@@H]4C[C@](C)(O)CC[C@@H]4[C@H]3CC[C@]12C [Example 26]', '5.00 to 6.00');

With those in mind, consider the next compound.
Memo: CCC[C@@]1(O)CC[C@H]2[C@@H](CC[C@@H]3[C@@H]2CC[C@]2(C)[C@@H]([C@@H](C)Cn4nnc(C)n4)CC[C@@H]32)C1 [Example 329] , reported pIC50: ≤ 5.00

----------
Target: [35S]-TBPS binding, rat brain cortical membranes
Experiment: Steroid inhibition of [35S]-TBPS binding
Conditions: 3 nM [35S]-TBPS, in the presence of 5 mM GABA
Procedure: [^35S]-t-Butylbicyclophosphorothionate (TBPS) binding assays using rat brain cortical membranes in the presence of 5 mM GABA has been described (Gee et al, J. Pharmacol. Exp. Ther. 1987, 241, 346-353; Hawkinson et al, Mol. Pharmacol. 1994, 46, 977-985; Lewin, A. H et al., Mol. Pharmacol. 1989, 35, 189-194). Briefly, cortices are rapidly removed following decapitation of carbon dioxide-anesthetized Sprague-Dawley rats (200-250 g). […]
ENDPOINT_NAME: IC50

Example entries and their recorded answers appear below.
INSERT INTO results (structure_string, endpoint_name, reported_measurement) VALUES
  ('CCOC[C@@]1(O)CC[C@H]2[C@H](CC[C@@H]3[C@@H]2CC[C@]2(C)[C@@H]([C@H](Cn4nnc(C)n4)C(F)(F)F)CC[C@@H]32)C1', 'IC50', '100 to 1000 nM'),
  ('CCOC[C@@]1(O)CC[C@H]2[C@H](CC[C@@H]3[C@@H]2CC[C@]2(C)[C@@H]([C@@H](C)N4CCc5cc(C#N)ccc5C4=O)CC[C@@H]32)C1', 'IC50', '< 100 nM'),
  ('COc1ccc(C(=O)N[C@H](C)[C@H]2CC[C@H]3[C@@H]4CC[C@@H]5C[C@](C)(O)CC[C@@H]5[C@H]4CC[C@]23C)cc1', 'IC50', '100 to 1000 nM'),
  ('C[C@@H](Cn1cc(C#N)cn1)[C@H]1CC[C@H]2[C@@H]3CC[C@@H]4C[C@](C)(O)CC[C@]4(C)[C@H]3CC[C@]12C', 'IC50', '< 100 nM');

With those in mind, consider the next molecule.
Memo: CC[C@@]1(O)CC[C@H]2[C@@H](CC[C@@H]3[C@@H]2CC[C@]2(C)[C@@H]([C@H](C)Cn4nnc(C)n4)CC[C@@H]32)C1 , reported IC50: ≥ 10000 nM

----------
Biological target: human GABAA receptors composed of the α1β2γ2 subunits (Homo sapiens (Human), UniProt P14867+P18507+P47870)
Sequence (P14867 28-456 limits assumed): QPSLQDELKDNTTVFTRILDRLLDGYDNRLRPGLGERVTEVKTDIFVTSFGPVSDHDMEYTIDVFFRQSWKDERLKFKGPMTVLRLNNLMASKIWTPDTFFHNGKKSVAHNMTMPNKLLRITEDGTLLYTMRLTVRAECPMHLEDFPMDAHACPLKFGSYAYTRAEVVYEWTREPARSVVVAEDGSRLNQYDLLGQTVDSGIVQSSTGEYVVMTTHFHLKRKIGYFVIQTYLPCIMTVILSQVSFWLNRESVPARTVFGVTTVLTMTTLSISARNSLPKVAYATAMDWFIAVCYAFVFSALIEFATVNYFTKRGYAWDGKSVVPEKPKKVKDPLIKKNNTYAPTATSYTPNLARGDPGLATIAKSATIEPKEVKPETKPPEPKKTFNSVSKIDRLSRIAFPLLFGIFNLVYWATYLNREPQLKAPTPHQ
Sequence (P47870 25-512 limits assumed): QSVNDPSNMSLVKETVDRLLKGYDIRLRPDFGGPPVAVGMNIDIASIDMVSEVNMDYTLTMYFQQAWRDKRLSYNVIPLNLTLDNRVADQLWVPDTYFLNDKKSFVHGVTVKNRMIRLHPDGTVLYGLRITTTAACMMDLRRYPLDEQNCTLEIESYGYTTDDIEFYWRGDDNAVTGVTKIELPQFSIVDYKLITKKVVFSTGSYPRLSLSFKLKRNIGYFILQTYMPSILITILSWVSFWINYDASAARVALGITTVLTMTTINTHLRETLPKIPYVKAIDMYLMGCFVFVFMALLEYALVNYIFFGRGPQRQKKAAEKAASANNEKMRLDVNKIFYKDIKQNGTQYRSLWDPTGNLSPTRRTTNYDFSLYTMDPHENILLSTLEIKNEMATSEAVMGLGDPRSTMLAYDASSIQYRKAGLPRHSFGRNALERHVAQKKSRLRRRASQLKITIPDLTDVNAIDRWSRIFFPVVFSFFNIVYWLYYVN
Sequence (P18507 40-475 limits assumed): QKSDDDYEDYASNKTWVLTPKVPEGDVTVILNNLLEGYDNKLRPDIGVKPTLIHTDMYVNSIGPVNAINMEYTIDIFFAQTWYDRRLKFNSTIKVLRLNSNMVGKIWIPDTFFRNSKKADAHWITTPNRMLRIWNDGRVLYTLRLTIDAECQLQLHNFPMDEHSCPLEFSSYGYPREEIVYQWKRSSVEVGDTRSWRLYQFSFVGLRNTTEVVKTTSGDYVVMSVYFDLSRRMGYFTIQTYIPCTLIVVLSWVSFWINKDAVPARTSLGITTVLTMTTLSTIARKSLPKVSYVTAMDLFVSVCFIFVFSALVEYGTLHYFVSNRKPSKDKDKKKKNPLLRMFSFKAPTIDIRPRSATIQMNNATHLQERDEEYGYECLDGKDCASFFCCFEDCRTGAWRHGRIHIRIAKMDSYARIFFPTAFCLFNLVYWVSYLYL
Test: α1β2γ2 SyncroPatch automated patch clamp assay
Assay type: cell-based
Settings: HEK cells, potentiation of submaximal GABA current, clamped at −120 mV
ENDPOINT_NAME: EC50

Memo: CCC[C@@]1(O)CC[C@@]2(C)[C@H](CC[C@H]3[C@@H]4CC[C@H](C(C)Cn5cc(C#N)cn5)[C@@]4(C)CC(=O)[C@@H]32)C1 (stereo in doubt) , reported EC50: ≥ 1000 nM

Memo: CCC[C@@]1(O)CC[C@H]2[C@H](CC[C@@H]3[C@@H]2CC[C@]2(C)[C@@H]([C@@H](C)Cc4ccc(C#N)nc4)CC[C@@H]32)C1 , reported EC50: ≥ 1000 nM

Memo: COC[C@@]1(O)CC[C@H]2[C@@H](CC[C@@H]3[C@@H]2CC[C@]2(C)[C@@H]([C@@H](C)Cn4nnc(C)n4)CC[C@@H]32)C1 , reported EC50: ≥ 1000 nM

Memo: C[C@H](Cc1cncc(C#N)c1)[C@H]1CC[C@H]2[C@@H]3CC[C@@H]4C[C@](C)(O)CC[C@@H]4[C@H]3CC[C@]12C , reported EC50: < 200 nM

----------
Target: [35S]-TBPS binding, rat brain cortical membranes
Assay: Steroid inhibition of [35S]-TBPS binding
Conditions: 3 nM [35S]-TBPS, in the presence of 5 mM GABA
pIC50: −log10 of the molar value.
ENDPOINT_NAME: pIC50

Example entries and their recorded answers appear below.
INSERT INTO assay_data (compound, tgt, endpoint_name, reported_measurement) VALUES
  ('COC[C@@]1(O)CC[C@H]2[C@H](CC[C@@H]3[C@@H]2CC[C@]2(C)[C@@H]([C@H](C)Cn4nccc4C#N)CC[C@@H]32)C1 [Example 34]', '[35S]-TBPS binding, rat brain cortical membranes', 'pIC50', '> 7.00'),
  ('COc1cncc(C[C@H](C)[C@H]2CC[C@H]3[C@@H]4CC[C@@H]5C[C@](C)(O)CC[C@@H]5[C@H]4CC[C@]23C)c1 [Example 432]', '[35S]-TBPS binding, rat brain cortical membranes', 'pIC50', '> 7.00'),
  ('CCOC[C@@]1(O)CC[C@H]2[C@H](CC[C@@H]3[C@@H]2CC[C@]2(C)[C@@H]([C@H](CC)Cn4ccc(C#N)n4)CC[C@@H]32)C1 [Example 499]', '[35S]-TBPS binding, rat brain cortical membranes', 'pIC50', '> 7.00'),
  ('C[C@@]1(O)CC[C@H]2[C@H](CC[C@@H]3[C@@H]2CC[C@]2(C)[C@@H](CN4C(=O)CCC[C@H]4c4ccccc4)CC[C@@H]32)C1 [Example 14]', '[35S]-TBPS binding, rat brain cortical membranes', 'pIC50', '6.00 to 7.00');

With those in mind, consider the next compound.
Memo: COC[C@@]1(O)CC[C@H]2[C@H](CC[C@@H]3[C@@H]2CC[C@]2(C)[C@@H]([C@@H](C)n4ncc(C#N)c4N)CC[C@@H]32)C1 [Example 152] , reported pIC50: 5.00 to 6.00

All values here come from patent US20230322846A9.
